Percent Effect values, listed per item
system: Mycobacterium tuberculosis; assay: Cornell M. t heat shock assay; type: functional, organism-based; parameters: dose or concentration left out as unconfirmed; note: in the data most compounds retested in dose-response had high values
About 950 (1.4%) of roughly 69,000 compounds showed an effect of 50% or more. Shown is part of a subset that was picked to be rich in strong results.

Some solved cases for reference:
In plain terms, O=C(O)CC(O)(CC(=O)O)C(=O)O.OC1CCCN(Cc2ccnc(-c3cccnc3)n2)C1 (stereo not drawn) has a documented Percent Effect of -5.175%

// Cc1nc(N2CCC(O)(c3ccccc3)CC2)c2c(C)nn(C)c2n1 : Percent Effect value = 12.95%

Record CC(c1cccc(-c2ncccc2C#N)c1)N(C)C (stereo not drawn) , field Percent Effect: 73.93%

Lab book: Percent Effect of O=C(O)C(F)(F)F.O=C(O)C(F)(F)F.O=C(O)C(F)(F)F.c1ccc(CN2CCCC3(CCN(Cc4cccs4)C3)C2)nc1 (stereo not drawn) noted as 0.0284%

New cases:
Measured Percent Effect, Cc1nn(C)c2nc(-c3ccccn3)nc(NCCCOC(C)C)c12 : 98.39%

Noted for CSCC[C@@H](CO)Nc1nc(-c2ccccn2)nc2c1c(C)nn2C : its Percent Effect reads 63.32%

The compound identified as COCCN1CCc2cc(C(=O)NC(C)C)c(NCC3CC3)nc2CC1.O=C(O)C(F)(F)F.O=C(O)C(F)(F)F registered its Percent Effect at -25.1%

# Percent Effect of O[C@@H]1CN(c2nc3ccccc3o2)CC[C@H]1c1ccc2c(c1)OCO2 = -10.34%

Input COCCN1C(=O)C[C@H]2[C@H]1CCN2Cc1ccccc1.O=C(O)C(F)(F)F . Output Percent Effect: 3.349%
